Data credit: the supplement of paper PMC3724861

System: Caupolican (Caup) homeodomain DNA-binding domain
Sequence: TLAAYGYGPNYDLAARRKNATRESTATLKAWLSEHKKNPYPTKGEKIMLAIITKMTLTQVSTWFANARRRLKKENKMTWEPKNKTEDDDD
Assay: PBM E-score (8-mer, recovered from the published 9-mer minima) (E-score (dimensionless, -0.5 to 0.5)); higher = stronger relative binding preference, active = 0.31 or more
This is one part of a sample in which hits are shown more often than they occur. The true hit rate is not given.
Reply using exactly one outcome from y (active), n (inactive)

1) AGATGGTG; n
2) ACTCAAGA; n
3) ACCATAAT; n
4) ATCCCCAC; n
5) ATCTTGTG; n
6) GCGACCGC; n
7) ACATGGTG; y
8) ACAAACCT; n
9) CCATGGTA; n
10) AGATTAGC; n

-- ask Hello, I am checking results. What call was entered for `AGATGACA` ?
-- reply n

----------
Test system: Caupolican (Caup) homeodomain DNA-binding domain
Sequence: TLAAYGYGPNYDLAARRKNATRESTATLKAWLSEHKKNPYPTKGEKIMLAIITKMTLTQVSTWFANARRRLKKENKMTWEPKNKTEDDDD
Test: PBM E-score (8-mer, recovered from the published 9-mer minima) (E-score (dimensionless, -0.5 to 0.5)); higher = stronger relative binding preference, active = 0.31 or more
Many of the other results were omitted from the sample, so hits are more common in it than they were. How many sequences the whole screen found active is unknown.
I'd be grateful if you could share measured PBM E-score for these entries.

As a guide, the following entries are already answered.
1. ACATGATG; 0.351 (active)
2. ACTGTGAT; 0.066 (inactive)
3. GACTATGA; 0.0441 (inactive)
4. AGATGATG; 0.0748 (inactive)
5. ACATAACA; 0.332 (active)

Here is another sequence to look at.
-- ask Would you please give the reported PBM E-score of `CGACTATC` with Caupolican (Caup) homeodomain DNA-binding domain?
-- reply -0.0393 (inactive)

----------
Test system: Caupolican (Caup) homeodomain DNA-binding domain
Sequence: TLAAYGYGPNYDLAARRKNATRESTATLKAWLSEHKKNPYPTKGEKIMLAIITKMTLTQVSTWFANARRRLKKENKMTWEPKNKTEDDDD
Experiment: PBM E-score (8-mer, recovered from the published 9-mer minima) (E-score (dimensionless, -0.5 to 0.5)); higher = stronger relative binding preference, active = 0.31 or more
The full list was thinned out, with hits kept by preference. How many sequences the whole screen found active is unknown.
Reply using exactly one outcome from TRUE for active, FALSE for inactive

See these solved cases before continuing.
1) CAACTCTA; FALSE
2) ACCAGGCT; FALSE
3) AAAACCGG; FALSE

-- ask Hello, I am checking results. What call was entered for `AGCAACGA` ?
-- reply FALSE

-- ask Hello, I am checking results. What call was entered for `GTAACAGA` ?
-- reply FALSE

----------
Tested on: Caupolican (Caup) homeodomain DNA-binding domain
Sequence: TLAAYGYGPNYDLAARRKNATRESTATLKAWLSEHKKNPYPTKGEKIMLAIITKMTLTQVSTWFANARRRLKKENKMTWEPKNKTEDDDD
Assay: PBM E-score (8-mer, recovered from the published 9-mer minima) (E-score (dimensionless, -0.5 to 0.5)); higher = stronger relative binding preference, active = 0.31 or more
This excerpt belongs to a sample that is enriched for hits. No count for the full screen is at hand.
measured_attribute: PBM E-score
One number for each entry.

1) GGACCCAC; -0.208
2) AATGTTAA; 0.291
3) ATAAACAG; 0.147
4) GTCTTGCA; 0.0651
5) ACAAACAA; 0.317
6) AGTGAATG; 0.0689
7) CGATGTCA; 0.311
8) AGCGCAAG; -0.181

// each listed sequence needs a value for PBM E-score
1. ACGTGGCG
2. CATGTCGC
3. CAGGGGAC
4. GGATGTGA
5. CATGTCAA
6. CATGTTAG
7. ATATGTCA

-- reply
1: -0.111; 2: 0.363; 3: -0.193; 4: 0.081; 5: 0.422; 6: 0.408; 7: 0.305

----------
System: Caupolican (Caup) homeodomain DNA-binding domain
Sequence: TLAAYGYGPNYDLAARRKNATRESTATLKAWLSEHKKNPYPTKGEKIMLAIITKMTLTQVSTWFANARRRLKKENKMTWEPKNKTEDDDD
Experiment: PBM E-score (8-mer, recovered from the published 9-mer minima) (E-score (dimensionless, -0.5 to 0.5)); higher = stronger relative binding preference, active = 0.31 or more
Only a selection was taken, and hits are over-represented in it overall. How many sequences the whole screen found active is unknown.
I'd be grateful if you could share measured PBM E-score for these entries.
One number for each entry.

As a guide, the following entries are already answered.
1) AATATAGA; 0.138
2) ATACAAGC; 0.316

-- ask Provide one value: measured PBM E-score of `TAAGTACA`
-- reply 0.332

----------
Test system: Caupolican (Caup) homeodomain DNA-binding domain
Sequence: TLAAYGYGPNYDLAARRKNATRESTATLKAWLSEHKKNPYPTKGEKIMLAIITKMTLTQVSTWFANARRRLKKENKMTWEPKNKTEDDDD
Assay: PBM E-score (8-mer, recovered from the published 9-mer minima) (E-score (dimensionless, -0.5 to 0.5)); higher = stronger relative binding preference, active = 0.31 or more
Only a selection was taken, and hits are over-represented in it overall. No count for the full screen is at hand.
Reply using exactly one outcome from YES = active, NO = inactive

See these solved cases before continuing.
1) AAGCATGG; NO
2) AATCATGT; YES
3) CTAAATAA; NO

-- ask Hello, I am checking results. What call was entered for `ACAAACAT` ?
-- reply YES

-- ask Hello, I am checking results. What call was entered for `GCAGTGAC` ?
-- reply NO

-- ask Hello, I am checking results. What call was entered for `GTATGTCA` ?
-- reply YES

-- ask Hello, I am checking results. What call was entered for `AATGTTAG` ?
-- reply NO

-- ask Hello, I am checking results. What call was entered for `ACTCCGAG` ?
-- reply NO

-- ask Hello, I am checking results. What call was entered for `CTGATTTA` ?
-- reply NO

-- ask Hello, I am checking results. What call was entered for `ATAAACAC` ?
-- reply NO

-- ask Hello, I am checking results. What call was entered for `CTTGGTCA` ?
-- reply NO

-- ask Hello, I am checking results. What call was entered for `CACGAAAG` ?
-- reply NO

-- ask Hello, I am checking results. What call was entered for `CCCGAATC` ?
-- reply NO

-- ask Hello, I am checking results. What call was entered for `TCTGTTAA` ?
-- reply NO

-- ask Hello, I am checking results. What call was entered for `GTGTATCA` ?
-- reply NO

-- ask Hello, I am checking results. What call was entered for `CGTGTAGA` ?
-- reply NO

-- ask Hello, I am checking results. What call was entered for `TATGTCGA` ?
-- reply YES

-- ask Hello, I am checking results. What call was entered for `ACATGGTA` ?
-- reply YES

-- ask Hello, I am checking results. What call was entered for `AGTGTACC` ?
-- reply NO

-- ask Hello, I am checking results. What call was entered for `GATGTTAC` ?
-- reply NO

----------
Tested on: Caupolican (Caup) homeodomain DNA-binding domain
Sequence: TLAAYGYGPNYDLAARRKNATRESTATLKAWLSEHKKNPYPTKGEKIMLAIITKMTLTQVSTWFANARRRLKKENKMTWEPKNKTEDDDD
Test: PBM E-score (8-mer, recovered from the published 9-mer minima) (E-score (dimensionless, -0.5 to 0.5)); Drosophila protein; higher = stronger relative binding preference, active = 0.31 or more
The entries come from a sample that favours hits as a whole. How many sequences the whole screen found active is unknown.
measured_attribute: PBM E-score
One number for each entry.

As a guide, the following entries are already answered.
1. CGATGTCC; 0.143
2. GCAAGTGC; -0.0754

// each listed sequence needs a value for PBM E-score
1. GATCTCGC
2. CGGTGTCA
3. CATGTCGG

-- reply
1. -0.112
2. 0.193
3. 0.357

// each listed sequence needs a value for PBM E-score
1. ACATGGTC
2. TAGGTTAA

-- reply
1: 0.285; 2: 0.0795
